The measured values listed here are drawn from patent US11667602B2.

# assay: Human Liver Microsomal Stability (Test C)
# Type: in vitro ADME
# condition: human, liver microsomes
Reported microsomal CLint values for the following compounds.
Express it in µL/min/mg; write the number only.

Example entries begin here.
COc1cc(F)c(O[C@H]2CC[C@@H](C(=O)O)CC2)cc1C(=O)N[C@@H]1[C@H]2CC[C@H](C2)[C@@H]1C(=O)N[C@@H](C)C(C)(C)C	26
COc1cc(F)c(CC2CCC(C)(C(=O)O)CC2)cc1C(=O)NC1C2CCC(C2)C1C(=O)NCC1(C)CCC1 (centres unmarked)	49
COc1cc(F)c(O[C@H]2CC[C@@H](C(=O)O)CC2)cc1C(=O)N[C@@H]1[C@H]2CC[C@H](C2)[C@@H]1C(=O)Nc1cccc(C(C)(C)C)c1	34
COc1cc(F)c(O[C@H]2CC[C@@](C)(C(=O)O)CC2)cc1C(=O)N[C@@H]1[C@H](O)CC[C@@H]1C(=O)Nc1cccc(S(=O)(=O)C(F)(F)F)c1 (racemic)	47

As a next step, examine the compound that follows.
Query string: Field request: microsomal CLint | item: `COc1cc(F)c(O[C@H]2CC[C@@H](C(=O)O)CC2)cc1C(=O)N[C@@H]1[C@H]2CC[C@H](C2)[C@@H]1C(=O)Nc1cc(C)cc(C(F)(F)F)c1`
Result string: 36
